Experiment: Solubility of the compound of formula (i)
Assay type: physicochemical
Conditions: Solution 2 defined in the Japanese Pharmacopoeia, aqueous buffer; Solution 2 (pH 6.8) defined in the Japanese Pharmacopoeia at 37° C.
Experimental: Solubility of this compound is 1.09 μg/mL in Solution 1 (pH 1.2) defined in the Japanese Pharmacopoeia at 37° C., 0.88 μg/mL in Solution 2 (pH 6.8) defined in the Japanese Pharmacopoeia at 37° C., 0.53 μg/mL in a phosphate buffer (pH 7.2) at 37° C., and about 2 mg/mL in Panasate at room temperature.
Readout: solubility (µg/mL)

> print(dat)
                    structure.smiles.string     readout  observed.result
1  O=C(Cc1c(F)cccc1Cl)Nc1onc(-c2ccc(F)cc2)c1-c1ccncn1  solubility             0.88

Cited source for all entries: patent US8309138B2
